- subjectOfTest: Recombinant human 5′-nucleotidase (hCD73) (Homo sapiens (Human), UniProt P21589)
- Sequence (P21589 27-574): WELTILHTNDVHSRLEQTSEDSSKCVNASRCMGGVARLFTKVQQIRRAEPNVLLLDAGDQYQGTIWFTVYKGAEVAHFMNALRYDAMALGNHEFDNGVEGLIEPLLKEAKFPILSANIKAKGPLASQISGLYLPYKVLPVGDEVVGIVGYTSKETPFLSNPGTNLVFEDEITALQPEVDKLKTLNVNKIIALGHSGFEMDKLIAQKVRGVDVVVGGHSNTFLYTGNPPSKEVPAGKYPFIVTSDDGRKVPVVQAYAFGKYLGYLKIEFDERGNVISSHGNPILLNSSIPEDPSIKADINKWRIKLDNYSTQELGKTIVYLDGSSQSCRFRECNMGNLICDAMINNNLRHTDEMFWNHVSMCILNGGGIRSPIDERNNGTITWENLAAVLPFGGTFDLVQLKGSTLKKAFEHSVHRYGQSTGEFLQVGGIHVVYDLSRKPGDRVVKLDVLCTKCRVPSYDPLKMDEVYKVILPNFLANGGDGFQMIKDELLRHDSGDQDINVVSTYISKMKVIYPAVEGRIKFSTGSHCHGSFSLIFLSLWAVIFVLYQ
- test: CD73 enzyme inhibition assay (hCD73, AMP substrate, PiColorLock Gold phosphate detection)
- protocolConditions: hCD73 1 nM solution, AMP 60 μM solution, 37° C. 20 min, absorbance 635 nm
- Protocol: Test compound solution preparation: Stock solution of a test compound was prepared in DMSO at 10 mM concentration. A series of preset 10-concentration solutions of a test compound were prepared by diluting the stock solution in 5-fold gradient dilution with DMSO. Assay buffer (lx): 20 mm Tris, 25 mM NaCl, 1 mM MgCl2, pH 7.5, 0.005% Tween-20 (freshly prepared, and ready for use). An aliquot of 0.25 μL of compound solution or DMSO (blank control) was added to each test well of a micro well plate. […]
outcomeMeasure: IC50 (nM)

Examples from the recorded data:
{"compound": "O=P(O)(O)CP(=O)(O)OC[C@H]1O[C@@H](n2cnc3c(N4CCC5(CCc6ccccc65)C4)nc(Cl)nc32)[C@@H](O)C1O (stereo partly drawn)", "IC50 (nM)": 0.75}
{"compound": "O=P(O)(O)CP(=O)(O)OC[C@H]1O[C@@H](n2cnc3c(N4CC(c5ccccc5)(c5ccccc5)C4)nc(Cl)nc32)[C@@H](O)C1O (stereo partly drawn)", "IC50 (nM)": 1.39}
{"compound": "O=P(O)(O)CP(=O)(O)OC[C@H]1O[C@@H](n2cnc3c(N4CC5(CCCCC5)c5ccccc54)nc(Cl)nc32)[C@@H](O)C1O (stereo partly drawn)", "IC50 (nM)": 1.8}
{"compound": "O=P(O)(O)CP(=O)(O)OC[C@H]1O[C@@H](n2cnc3c(N4CCC5(CC4)Cc4ccccc4C5)nc(Cl)nc32)[C@@H](O)C1O (stereo partly drawn)", "IC50 (nM)": 1.42}

a = O=P(O)(O)CP(=O)(O)OC[C@H]1O[C@@H](n2cnc3c(N4CC5(CCCC5)c5ccccc54)nc(Cl)nc32)[C@@H](O)C1O (stereo partly drawn)
b = O=P(O)(O)CP(=O)(O)OC[C@H]1O[C@@H](n2cnc3c(N4CC5(CCc6ccccc65)C4)nc(Cl)nc32)[C@@H](O)C1O (stereo partly drawn)
// select label with min value of measured IC50 from [ a , b ] Your answer should be the label attached to the chosen record.
b
